Please go through the items and note down their Western blot, % of protein reduction.
system_name: MCL-1 protein (Homo sapiens, UniProt Q07820)
Sequence (Q07820 whole entry): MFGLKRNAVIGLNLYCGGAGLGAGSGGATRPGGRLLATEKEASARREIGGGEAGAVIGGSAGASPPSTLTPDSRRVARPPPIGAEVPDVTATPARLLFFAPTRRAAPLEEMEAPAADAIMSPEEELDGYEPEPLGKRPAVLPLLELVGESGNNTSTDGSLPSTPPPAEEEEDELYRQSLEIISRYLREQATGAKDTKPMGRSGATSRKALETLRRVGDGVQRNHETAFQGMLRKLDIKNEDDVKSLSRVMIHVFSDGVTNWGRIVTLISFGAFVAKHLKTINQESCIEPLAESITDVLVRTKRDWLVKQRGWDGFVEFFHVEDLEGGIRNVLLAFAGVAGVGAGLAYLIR
assay_name: OPM-2 cells: MCL-1 protein degradation, Western blot
Assay type: cell-based
Design: endogenous in cells; host or cells: OPM-2
protocol_conditions: OPM-2 cell line, 6 h treatment, 100 nM compound, vs DMSO

Record Cc1nn(C)c(C)c1-c1cccc2c(CCCOc3cccc4ccccc34)c(C(=O)O)n(CCN3CCN(C(=O)COc4cccc5c4C(=O)N(C4CCC(=O)NC4=O)C5=O)CC3)c12 (stereo not drawn) [Compound 241] , field Western blot, % of protein reduction: ≥50%

Record Cc1nn(C)c(C)c1-c1c(Cl)ccc2c(CCCOc3cccc4cc(F)ccc34)c(C(=O)O)n(CCN3CCN(C(=O)COc4cccc5c4C(=O)N(C4CCC(=O)NC4=O)C5=O)CC3)c12 (stereo not drawn) [Compound 214] , field Western blot, % of protein reduction: ≥50%

Record Cc1nn(C)c(C)c1-c1c(Cl)ccc2c(CCCOc3cccc4cc(F)ccc34)c(C(=O)O)n(CCN3CCN(C(=O)COc4cccc5c4CN(C4CCC(=O)NC4=O)C5=O)CC3)c12 (stereo not drawn) [Compound 220] , field Western blot, % of protein reduction: ≥50%
